- Tested system: HLA-A*0201 (purified HLA class I molecule) (human)
- Assay name: competition with 125I-labelled standard peptide for purified HLA, gel filtration
Outcome measure: binding affinity ratio (IC50 of standard peptide / IC50 of test peptide)

{"columns": ["Binder", "Assay result"],
 "data": [
  ["MLCAGRWT (modifications not checked) [PSA peptide MLCAGRWT (position 192, 8 amino acids)]", 0.0006],
  ["NLFEPEDT (modifications not checked) [Kallikrein (hK2) peptide NLFEPEDT (position 79, 8 amino acids)]", 0.0002],
  ["LVHPQWVL (modifications not checked) [Kallikrein (hK2) peptide LVHPQWVL (position 54, 8 amino acids)]", 0.0001],
  ["MTKLRELSEL (modifications not checked) [PAP peptide … (position 232, 10 amino acids)]", 0.0002],
  ["LVHPQWVL (modifications not checked) [PSA peptide LVHPQWVL (position 50, 8 amino acids)]", 0.0001],
  ["MLLRLSEPAEL (modifications not checked) [PSA peptide … (position 118, 11 amino acids)]", 0.14],
  ["NAQLAGAKGV (modifications not checked) [PSM peptide … (position 216, 10 amino acids)]", 0.0002],
  ["LVHPQWVLT (modifications not checked) [Kallikrein (hK2) peptide … (position 54, 9 amino acids)]", 0.0001],
  ["NLLHETDSA (modifications not checked) [PSM peptide … (position 3, 9 amino acids)]", 0.0001],
  ["LVHPQWVLTAA (modifications not checked) [PSA peptide … (position 50, 11 amino acids)]", 0.0001],
  ["MALDVYNGLL (modifications not checked) [PAP peptide … (position 298, 10 amino acids)]", 0.001],
  ["LVHPQWVLT (modifications not checked) [PSA peptide … (position 50, 9 amino acids)]", 0.0001],
  ["NLNGAGDPLT (modifications not checked) [PSM peptide … (position 260, 10 amino acids)]", 0.0002],
  ["LVHPQWVLTA (modifications not checked) [Kallikrein (hK2) peptide … (position 54, 10 amino acids)]", 0.0001],
  ["LVHPQWVLTA (modifications not checked) [PSA peptide … (position 50, 10 amino acids)]", 0.0001],
  ["LVHNLTKEL (modifications not checked) [PSM peptide … (position 473, 9 amino acids)]", 0.0001],
  ["LVHPQWVLTAA (modifications not checked) [Kallikrein (hK2) peptide … (position 54, 11 amino acids)]", 0.0001]
]}
